# Assay text: yeast display, Sf9 membrane polyspecificity reagent, FACS + sequencing; frameworks hold sequencing errors
Reported metric: polyreactivity (PSR sort gate)

// known answers, use as guide
                             sequence_input         assay_result
0  QVQLVESGGGLVQAGGSLRLSCAASGRIFFYNVMGWYRQAPGKERELVAAITTIGGSTYYADSVKGRFTISRDNAKNTVYLQMNTLKPEDTAVYYCAAGWVTNSDGMDYWGQGTQVTVSS   low polyreactivity
1  QVQLVESGGGLVQAGGILRLICAASGRIFGPYAMGWYRQAPGKERELVADITGGGTYYADSVKGRFTISRDNAKNTVYLQMFSLKPEDTSVYYCAADYSSYTSFRYDYWGQGTHVTVSS   low polyreactivity
2  QVQLVESGGGLVQAGGSLRLSCDASGSTFPFYAMARYRQAPRKERELVAAIRNTGNTYYADSVKGSFTISRDNAKNTAYLQMNSLNPEDPAVYYCAKALRSASDYWGQGTQVTVSS   low polyreactivity
3  QVQLVESGGGLVQAGGSLRLSCAASGYVYVMGWYRQAPGKERELVAAISKNGGSTYYADSVKGRFTISRYNAKNTVYLQMNSLKPEDTAVYYCAAVSYHKTEYDYWGQGTQVTVSS  high polyreactivity

Exercise: What measured polyreactivity (PSR sort gate) goes with QVQLVESGGGLVQAGGSLRLSCAASGGIFLYNAMGWYRQAPGKERELVAAISRSGGGTYYADSVKGRFTISRDNAKNTVYLQMNSLKPEDTAVYYCAKTLRAYSDYYYWGQGTQVTVSS ?
Solution: high polyreactivity
